The reported measurements were obtained from ChEMBL document CHEMBL3301472.

assay: MMV: MTT Cytotoxicity Assay Day 3 pi, U87-CD4-CXCR4 cells, % cell death @ 5mM compound
Assay type: toxicity, cell-based
cond: human, u87-cd4-cxcr4, 5000 µM
Short version: % Cell Death at least 50 is met, less is not met.

compound | class_name
COc1ccc(-c2nc(N3CCN(C(=O)C4CCCCC4)CC3)c3c4c(sc3n2)CCCC4)cc1 | not met
COc1ccc(N2CCN(C(CNC(=O)CC(C)(C)C)c3ccc4c(c3)OCO4)CC2)cc1 (stereo unspecified) | not met
Oc1ccc(Br)cc1CN1CCN(Cc2ccc(Cl)cc2)CC1 | met
CCCCN(CCCC)S(=O)(=O)c1ccc(NC(=O)c2ccco2)cc1 | not met
COc1ccc(C(=O)Nc2nonc2-c2ccc(OC)c(OC)c2)cc1Cl | not met
COc1cc(OC)cc(C(=O)Nc2ccc(-c3nc4ccccc4[nH]3)cc2)c1 | met
O=C(CCl)NCCOc1ccc(Cl)cc1Cl | not met
CCOc1cccc2sc(N(Cc3cccnc3)C(=O)C3CCCCC3)nc12 | not met
OC1=C2C(=Nc3ccccc3SC2c2ccccc2)c2ccccc21 (stereo unspecified) | not met
O=C(Nc1cccc(C(F)(F)F)c1)c1cc(Cl)ccc1O | met
COc1ccc(C(=O)NC(c2ccccc2Cl)c2cc(Cl)c3cccnc3c2O)cc1 (stereo unspecified) | met
